- Tested target: Cytochrome P450 2C9 (Homo sapiens, UniProt P11712)
- Sequence (P11712 whole entry): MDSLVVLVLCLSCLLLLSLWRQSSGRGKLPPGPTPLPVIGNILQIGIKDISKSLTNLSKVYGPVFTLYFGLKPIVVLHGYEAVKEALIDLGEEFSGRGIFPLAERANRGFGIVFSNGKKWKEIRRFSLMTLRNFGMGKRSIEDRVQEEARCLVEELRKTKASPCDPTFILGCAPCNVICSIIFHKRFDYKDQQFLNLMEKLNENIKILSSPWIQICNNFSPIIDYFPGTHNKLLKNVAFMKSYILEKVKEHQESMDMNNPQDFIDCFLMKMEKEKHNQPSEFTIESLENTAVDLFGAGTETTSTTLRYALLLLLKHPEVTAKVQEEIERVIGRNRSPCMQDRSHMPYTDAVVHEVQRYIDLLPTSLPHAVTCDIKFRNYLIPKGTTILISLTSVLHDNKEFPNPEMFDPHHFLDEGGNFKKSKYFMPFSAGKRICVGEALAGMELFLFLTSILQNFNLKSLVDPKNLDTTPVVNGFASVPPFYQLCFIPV
- Assay notes: Inhibition of recombinant CYP2C9 (unknown origin) by fluorescence-based assay
Range-based classes on measured IC50: lower range (below 9 µM), middle range (9 µM to below 40 µM), upper range (40 µM or more)

Worked cases, answers included:
[[record]]
compound = "COc1nc(-c2csc(Nc3c4c(nn3CCO)CCCC4)n2)ccc1-n1cnc(C)c1"
tested_target = "Cytochrome P450 2C9 (Homo sapiens, UniProt P11712)"
class_assignment = "upper range"

[[record]]
compound = "COc1nc(-c2csc(Nc3c4c(nn3CCCO)CCCC4)n2)ccc1-n1cnc(C)c1"
tested_target = "Cytochrome P450 2C9 (Homo sapiens, UniProt P11712)"
class_assignment = "upper range"


q: Entry COc1nc(-c2csc(Nc3c4c(nn3CCF)CCCC4)n2)ccc1-n1cnc(C)c1 belongs to which category?
a: lower range

q: Category lookup for the compound CCn1nc(C(F)(F)F)cc1Nc1nc(-c2ccc(-n3cnc(C)c3)c(OC)n2)cs1
a: upper range

q: Given COc1nc(-c2csc(Nc3c4c(nn3C(C)(C)C)CCCC4)n2)ccc1-n1cnc(C)c1 , name the class its IC50 places it in.
a: upper range

q: Would you mind sorting COc1nc(-c2csc(Nc3c4c(nn3C)CCC4)n2)ccc1-n1cnc(C)c1 into the appropriate category?
a: upper range

q: Which class holds COc1nc(-c2csc(Nc3c4c(nn3CC(F)(F)F)CCC4)n2)ccc1-n1cnc(C)c1 ?
a: middle range

q: # classify by IC50 band: CCn1nc(C2(C)CC2)cc1Nc1nc(-c2ccc(-n3cnc(C)c3)c(OC)n2)cs1
a: upper range

q: Category of CCn1nc2c(c1Nc1nc(-c3ccc(-n4cnc(C)c4)c(OC)n3)cs1)CCC2 , please.
a: upper range

q: Note: place this compound into its band. Item: CCn1nc2c(c1Nc1nc(-c3ccc(-n4cnc(C)c4)c(OC)n3)cs1)CCCCC2
a: middle range

q: State the band of COc1nc(-c2csc(Nc3cc(C(C)(C)C)nn3C(C)C)n2)ccc1-n1cnc(C)c1
a: middle range

q: Which category does the recorded IC50 put COc1nc(-c2csc(Nc3c4c(nn3CCF)CCC4)n2)ccc1-n1cnc(C)c1 in?
a: upper range

q: Hi there! Could you help me figure out the category for COc1nc(-c2csc(Nc3c4c(nn3C3CCC3)CCCC4)n2)ccc1-n1cnc(C)c1 please?
a: lower range

q: Sort COc1nc(-c2csc(Nc3cc(C(C)(C)C)nn3CCF)n2)ccc1-n1cnc(C)c1 into one of the categories.
a: lower range

q: Hi, small favor: classify CCn1nc2c(c1Nc1nc(-c3ccc(-n4cnc(C)c4)c(OC)n3)cs1)CCC2(C)C by its IC50 when you get a moment.
a: upper range

q: Which bin should I file CCn1nc2c(c1Nc1nc(-c3ccc(-n4cnc(C)c4)c(OC)n3)cs1)C(C)CC2(C)C (racemic) under?
a: middle range

q: Consider COc1nc(-c2csc(Nc3c4c(nn3CCO)CCC4)n2)ccc1-n1cnc(C)c1 . To which IC50 class does it belong?
a: upper range

q: Class (by measured IC50) for COc1nc(-c2csc(Nc3cc(C(C)(C)C)nn3CC(F)(F)F)n2)ccc1-n1cnc(C)c1
a: middle range
